This section presents binders with their documented glycan array binding signal (z-score) values.
molecular target: Gal(a1-4)Gal(b1-4)GlcNAc(b1-3)Gal(b1-4)Glc; assay: glycan array binding signal (z-score within array); higher = stronger binding; conditions: glycan notation: IUPAC condensed, linker removed
This excerpt belongs to a sample that is enriched for the strongest signals.

Layilin (Mus musculus), Q8C351 (protein) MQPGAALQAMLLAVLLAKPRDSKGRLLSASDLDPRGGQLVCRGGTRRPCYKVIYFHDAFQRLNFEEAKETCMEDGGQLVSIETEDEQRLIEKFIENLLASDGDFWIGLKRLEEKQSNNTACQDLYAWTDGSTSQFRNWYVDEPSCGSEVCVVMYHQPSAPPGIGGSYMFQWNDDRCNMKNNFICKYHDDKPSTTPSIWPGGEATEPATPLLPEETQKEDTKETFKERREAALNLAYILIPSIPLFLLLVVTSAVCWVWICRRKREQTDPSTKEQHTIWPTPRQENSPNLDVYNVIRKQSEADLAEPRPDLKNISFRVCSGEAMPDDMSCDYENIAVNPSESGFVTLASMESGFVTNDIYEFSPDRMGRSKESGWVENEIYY :: 3.88

Now consider a different binder.
Endpoint output: glycan array binding signal (z-score) of CD34 (Homo sapiens), P28906 (protein) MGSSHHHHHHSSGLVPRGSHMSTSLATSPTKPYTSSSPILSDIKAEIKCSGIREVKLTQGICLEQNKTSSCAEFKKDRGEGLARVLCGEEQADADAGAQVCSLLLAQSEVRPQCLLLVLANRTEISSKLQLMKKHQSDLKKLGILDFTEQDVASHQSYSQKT . Value?
-0.647
